Molecular target: PDGF-BB (platelet-derived growth factor BB) (Homo sapiens)
Assay: filter
Settings: NapdU at P; 2'-OMe 1,20,21

Macromolecule Sequence: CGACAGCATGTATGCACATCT [5169-4_123]
Unit Info: nM
Kd: 0.03

* * *

Target: PDGF-BB (platelet-derived growth factor BB) (Homo sapiens) (UniProt P01127)
Sequence (P01127 82-190): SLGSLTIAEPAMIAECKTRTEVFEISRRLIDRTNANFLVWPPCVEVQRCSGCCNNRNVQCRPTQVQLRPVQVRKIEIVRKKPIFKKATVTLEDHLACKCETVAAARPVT
Experiment: filter
Conditions: BndU at 1,2,8,12,13,21,22,23,25; rest DNA; SB18T, 37 C; text p191 gives 20 pM, Table 1a 30 pM

Macromolecule Sequence: TTACGACTACGTTACACGCGTTTATAGCG [4149-8_38]
Target Of Assay: PDGF-BB (platelet-derived growth factor BB) (Homo sapiens) (UniProt P01127)
Kd / nM: 0.05

* * *

Target: PDGF-BB (platelet-derived growth factor BB) (Homo sapiens)
Experiment: filter
Details: Bn-dU; dT8; Heg5; 2'-OMe A3, A11, A21, G24

Macromolecule Sequence: TTACGTTACACGCGTTTATAGCG [4149-8_364]
Kd: > 10 nM

* * *

Molecular target: PDGF-BB (platelet-derived growth factor BB) (Homo sapiens)
Test: cell_activity
Settings: NapdU at 9,11,13,19; 2'-OMe G14,A16 and 2'-OMe-NapU21; inhibition of PDGFRbeta phosphorylation
Recorded Endpoint: IC50 (nM)

Macromolecule Sequence: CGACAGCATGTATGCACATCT [5169-4_112]
Value Measured: 1

* * *

Tested on: VEGF-121 (Homo sapiens), P15692-9
Sequence: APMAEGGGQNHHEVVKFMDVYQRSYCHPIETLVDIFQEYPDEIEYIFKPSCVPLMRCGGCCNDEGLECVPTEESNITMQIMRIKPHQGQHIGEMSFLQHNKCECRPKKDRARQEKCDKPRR
Assay: filter
Details: PDGF-1Heg-VEGF; NapdU, 2'-OMe
pKd: −log10 of the molar value.
Recorded Endpoint: pKd

Macromolecule Sequence: CGACAGCATGTATGCACATCTCCGTTCAAGTGCTTGTAGGATTTAAATGG [5169-4_104]
Value Measured: 9.55

* * *

Target: PDGF-BB (platelet-derived growth factor BB) (Homo sapiens) (UniProt P01127)
Assay: filter
Settings: Bn-dU; FBn-dU7; Ib-dU8; Pe-dU17; Th-dU18; Heg5; 2'-OMe A3, A11, A21, G24
pKd: −log10 of the molar value.

Macromolecule Sequence: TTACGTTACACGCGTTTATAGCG [4149-8_276]
pKd: < 8.00

* * *

Biological target: PDGF-BB (platelet-derived growth factor BB) (Homo sapiens)
Assay: filter
Settings: NapdU at P; 2'-OMe 6

Macromolecule Sequence: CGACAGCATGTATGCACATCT [5169-4_40]
Kd, nM: 0.024

* * *

Biological target: PDGF-AB (UniProt P04085+P01127)
Sequence (P01127 82-190, chain 2 of 2, other chains not shown): as the sequence (P01127 82-190) above
Experiment: filter
Conditions: NapdU at P; C3 spacer 15,18; specificity control
pKd: −log10 of the molar value.

Macromolecule Sequence: CCGTTCAAGTGCTTTAGATTTAAATGG [4867-31_183]
Target Of Assay: PDGF-AB (UniProt P04085+P01127)
pKd: 7.84

* * *

Molecular target: PDGF-BB (platelet-derived growth factor BB) (Homo sapiens) (UniProt P01127)
Experiment: filter
Details: as 5169-4_146; PS 12; 3' inverted dT

Macromolecule Sequence: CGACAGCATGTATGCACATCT [5169-4_157]
Kd (nM): 0.018

* * *

Tested on: VEGF-165 (Homo sapiens), P15692-4
Sequence: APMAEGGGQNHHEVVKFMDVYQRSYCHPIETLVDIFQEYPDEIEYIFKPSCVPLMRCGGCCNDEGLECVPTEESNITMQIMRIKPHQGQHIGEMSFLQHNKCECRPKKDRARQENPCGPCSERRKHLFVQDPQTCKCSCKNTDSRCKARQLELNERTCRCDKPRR
Test: filter
Conditions: NapdU at P
In this section we review reported log10 of Kd values for a set of sequences.
Recorded Endpoint: log10 of Kd (log10 of the value in nM)

Macromolecule Sequence: TCAATCAGCCGTTCAAGTGCTTGTAGGATTTAAAT [4867-31_25]
log10 of Kd: 1.41
--
Macromolecule Sequence: CAGCCGTTCAAGTGCTTGTAGGATTTAAATG [4867-31_45]
log10 of Kd: 0.04
--
Macromolecule Sequence: CAGCCGTTCAAGTGCTTGTAGGATTTAAATGG [4867-31_44]
log10 of Kd: -0.89
--
Macromolecule Sequence: GTTCAAGTGCTTGTAGGATTTAAATGGA [4867-31_61]
log10 of Kd: 0.46
--
Macromolecule Sequence: TCAATCAGCCGTTCAAGTGCTTGTAGGATTTAAATGG [4867-31_23]
log10 of Kd: -0.52
--
Macromolecule Sequence: CCGTTCAAGTGCTTGTAGGATTTAAATGGA [4867-31_59]
log10 of Kd: -0.80
--
Macromolecule Sequence: GCCGTTCAAGTGCTTGTAGGATTTAAATGGA [4867-31_58]
log10 of Kd: -1.00
--
Macromolecule Sequence: AGCCGTTCAAGTGCTTGTAGGATTTAAAT [4867-31_53]
log10 of Kd: 0.51
--
Macromolecule Sequence: AGCCGTTCAAGTGCTTGTAGGATTTAAATG [4867-31_52]
log10 of Kd: -0.77
--
Macromolecule Sequence: TCAATCAGCCGTTCAAGTGCTTGTAGGATTTAAATG [4867-31_24]
log10 of Kd: 0.45
--
Macromolecule Sequence: CGTTCAAGTGCTTGTAGGATTTAAATGGA [4867-31_60]
log10 of Kd: -0.21
--
Macromolecule Sequence: TCAATCAGCCGTTCAAGTGCTTGTAGGATTTAAATGGA [4867-31_22]
log10 of Kd: -0.59

* * *

System: VEGF-121 (Homo sapiens), P15692-9
Sequence: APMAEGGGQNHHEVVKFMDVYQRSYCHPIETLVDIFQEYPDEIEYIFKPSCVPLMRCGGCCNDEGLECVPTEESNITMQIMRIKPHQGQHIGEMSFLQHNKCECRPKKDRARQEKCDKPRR
Assay: filter
Settings: NapdU at P; 2'-OMe 10

Macromolecule Sequence: CCGTTCAAGTGCTTGTAGGATTTAAATGG [4867-31_156]
Kd: 0.68 nM

* * *

In this section we review reported Kd values for a set of sequences.
System: VEGF-165 (Homo sapiens), P15692-4
Sequence: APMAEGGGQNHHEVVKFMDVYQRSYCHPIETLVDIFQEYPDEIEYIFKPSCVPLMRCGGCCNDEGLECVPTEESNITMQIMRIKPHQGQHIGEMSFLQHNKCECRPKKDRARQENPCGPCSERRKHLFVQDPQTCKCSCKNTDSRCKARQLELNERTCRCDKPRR
Experiment: filter
Settings: P=Nap-dU

Macromolecule Sequence: CAGCCGTTCAAGTGCTTGTAGGATTTAAATGGAAT [4867-31_30]
Target Of Assay: VEGF-165 (Homo sapiens), P15692-4
Unit Info: nM
Kd: 0.2

Macromolecule Sequence: AATCAGCCGTTCAAGTGCTTGTAGGATTTAAATGGAAT [4867-31_27]
Target Of Assay: VEGF-165 (Homo sapiens), P15692-4
Unit Info: nM
Kd: 0.11

Macromolecule Sequence: TCAGCCGTTCAAGTGCTTGTAGGATTTAAATGGA [4867-31_41]
Target Of Assay: VEGF-165 (Homo sapiens), P15692-4
Unit Info: nM
Kd: 0.13

Macromolecule Sequence: TCAGCCGTTCAAGTGCTTGTAGGATTTAAATGGAAT [4867-31_29]
Target Of Assay: VEGF-165 (Homo sapiens), P15692-4
Unit Info: nM
Kd: 0.13

Macromolecule Sequence: CAGCCGTTCAAGTGCTTGTAGGATTTAAATGGAA [4867-31_36]
Target Of Assay: VEGF-165 (Homo sapiens), P15692-4
Unit Info: nM
Kd: 0.11

* * *

Target: PDGF-BB (platelet-derived growth factor BB) (Homo sapiens)
Assay: filter
Conditions: as 4149-8_379; 2'-OMe 13,14

Macromolecule Sequence: TTACGTTACCGCGTTTATAGCG [4149-8_424]
Kd (nM): 6.6

* * *

Biological target: PDGF-BB (platelet-derived growth factor BB) (Homo sapiens)
Experiment: filter
Conditions: Bn-dU; 2'-OMe U13
pKd: −log10 of the molar value.
Recorded Endpoint: pKd

Macromolecule Sequence: TTACGACTACGTTACACGCGTTTATAGCG [4149-8_107]
Recorded Endpoint: pKd
Value Measured: < 8.00

* * *

Target: PDGF-BB (platelet-derived growth factor BB) (Homo sapiens) (UniProt P01127)
Assay: filter
Settings: as 5169-4_146; PS 17; 3' inverted dT
pKd: −log10 of the molar value.
Recorded Endpoint: pKd

Macromolecule Sequence: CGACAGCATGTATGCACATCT [5169-4_176]
Value Measured: 10.85
